Assign hERG current change (%, negative = inhibition) at 1uM to each entry below.
subject.of.test: human ether-à-go-go-related gene (hERG) potassium channel (human, UniProt Q12809)
Sequence (Q12809 whole entry, looked up): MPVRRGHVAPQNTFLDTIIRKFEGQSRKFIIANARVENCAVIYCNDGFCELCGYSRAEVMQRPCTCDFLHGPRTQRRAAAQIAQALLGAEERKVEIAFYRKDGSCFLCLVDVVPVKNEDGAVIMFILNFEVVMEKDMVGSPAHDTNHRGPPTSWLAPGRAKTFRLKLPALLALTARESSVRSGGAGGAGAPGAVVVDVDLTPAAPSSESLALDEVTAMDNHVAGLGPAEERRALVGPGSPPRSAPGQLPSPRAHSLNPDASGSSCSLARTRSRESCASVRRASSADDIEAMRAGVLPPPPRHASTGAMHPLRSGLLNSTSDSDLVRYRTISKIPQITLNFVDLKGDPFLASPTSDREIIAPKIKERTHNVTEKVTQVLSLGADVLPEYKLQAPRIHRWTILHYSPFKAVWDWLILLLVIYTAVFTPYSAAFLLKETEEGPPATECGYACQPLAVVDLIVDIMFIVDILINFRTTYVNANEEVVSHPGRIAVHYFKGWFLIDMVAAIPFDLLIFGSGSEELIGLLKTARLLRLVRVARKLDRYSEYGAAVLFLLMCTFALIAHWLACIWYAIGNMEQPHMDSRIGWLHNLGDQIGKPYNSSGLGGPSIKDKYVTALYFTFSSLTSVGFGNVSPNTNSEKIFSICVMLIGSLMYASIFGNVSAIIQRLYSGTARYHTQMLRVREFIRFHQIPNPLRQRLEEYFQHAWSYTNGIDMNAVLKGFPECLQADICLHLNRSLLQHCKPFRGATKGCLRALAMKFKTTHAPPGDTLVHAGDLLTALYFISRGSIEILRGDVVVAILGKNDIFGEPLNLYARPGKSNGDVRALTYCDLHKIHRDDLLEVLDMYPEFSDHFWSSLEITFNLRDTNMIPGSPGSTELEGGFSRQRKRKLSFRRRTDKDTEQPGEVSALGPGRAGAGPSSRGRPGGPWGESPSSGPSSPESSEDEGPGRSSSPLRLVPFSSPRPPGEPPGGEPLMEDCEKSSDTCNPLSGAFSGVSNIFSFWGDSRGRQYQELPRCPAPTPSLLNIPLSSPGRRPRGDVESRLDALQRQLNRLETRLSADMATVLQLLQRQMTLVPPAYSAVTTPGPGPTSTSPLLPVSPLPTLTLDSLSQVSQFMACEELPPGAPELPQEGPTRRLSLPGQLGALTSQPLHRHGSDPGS
measurement.notes: primary screen, population patch clamp on CHO cells stably expressing hERG; higher = less effect of the substance
Hit rate of the full screen: of about 310,000 compounds, about 2,200 (0.71%) showed an effect of 50% or more. The effect is printed as a negative number. Many of the other results were omitted from the sample, so strong results are more common in it than they were.
Kindly answer with a numeric value in %, unit omitted.

Quick one: give measured hERG current change (%, negative = inhibition) at 1uM for O=C1NC(Cc2ccccc2)c2nc3ccc(Cl)cc3c(=O)n2-c2ccc(Cl)cc21 (stereo not shown) 10.4

Complete the entry with hERG current change (%, negative = inhibition) at 1uM for `Cc1onc(NC(=O)NC(=O)c2c(F)cccc2Cl)c1Br` 10.4

Output hERG current change (%, negative = inhibition) at 1uM of `Cc1ccc(S(=O)(=O)NCCC(=O)OCC(=O)N(Cc2ccccc2)C(C)(C)C)cc1C` -0.298

# return recorded hERG current change (%, negative = inhibition) at 1uM for entry `CCCCN(CCCC)CCNC(=O)CN1C(=O)CSc2ccc(S(=O)(=O)N3CCOCC3)cc21` -3.76

Look up and state reported hERG current change (%, negative = inhibition) at 1uM for `CCCCN(CCCC)CCNC(=O)CN1C(=O)CSc2ccc(S(=O)(=O)N3CCCCC3)cc21` -51.7

For the compound `CCNc1nnc(-c2ccc(C)cc2)o1` , report hERG current change (%, negative = inhibition) at 1uM. 9.37

Please give measured hERG current change (%, negative = inhibition) at 1uM of the following entry: `Cc1cc(CN2CCC(n3nccc3NC(=O)c3ccccc3Cl)CC2)cc(C)c1O` -64.4

====

subject.of.test: human ether-à-go-go-related gene (hERG) potassium channel (human, UniProt Q12809)
measurement.notes: primary screen, population patch clamp on CHO cells stably expressing hERG; higher = less effect of the substance
About 2,200 (0.71%) of roughly 310,000 compounds showed an effect of 50% or more. The effect is printed as a negative number. This excerpt belongs to a sample that is enriched for strong results.
outcome.measure: hERG current change (%, negative = inhibition) at 1uM (%)
The answer is to be given in %; state only the numeric part.

Fill in reported hERG current change (%, negative = inhibition) at 1uM for this entry: `O=C(NCc1ccncc1)/C(=C\c1ccc(F)cc1)NC(=O)c1ccccc1` -52.3

Report hERG current change (%, negative = inhibition) at 1uM for `COC(=O)C1=C(C(=O)OC)SC2(S1)C(C(=O)OC)=C(C(=O)OC)SC1=C2c2cc(C)cc(C)c2NC1(C)C` 19.8

Fill in hERG current change (%, negative = inhibition) at 1uM for record `COC(=O)c1ccc2nc(NC(=O)CN3C(=O)CCC3=O)sc2c1` 14.3

Quick one: give measured hERG current change (%, negative = inhibition) at 1uM for `O=C(NCc1ccncc1)/C(=C/c1cccc([N+](=O)[O-])c1)NC(=O)c1ccccc1` -31.2

Output measured hERG current change (%, negative = inhibition) at 1uM for this item: `Cc1ccc(C(=O)N/C(=C\c2cccc([N+](=O)[O-])c2)C(=O)NCc2ccncc2)cc1` -65.3

Tell me hERG current change (%, negative = inhibition) at 1uM reported for `CN(C)c1ccc(/C=C(\NC(=O)c2ccccc2)C(=O)NCc2ccncc2)cc1` 4.78

Quick one: give measured hERG current change (%, negative = inhibition) at 1uM for `COc1ccc(/C=C(/NC(=O)c2ccccc2)C(=O)NCc2ccncc2)cc1` -12.6

// fetch hERG current change (%, negative = inhibition) at 1uM given entry `c1ccc(-c2noc(-c3cccs3)n2)nc1` 7.74

Using the record for `CN(C)CCN(Cc1ccco1)C(=O)c1oc2ccccc2c1NC(=O)COc1ccccc1` , state its measured hERG current change (%, negative = inhibition) at 1uM. -79.3

Provide hERG current change (%, negative = inhibition) at 1uM value for the following compound: `CCNC(=O)/C(=C/c1cccc([N+](=O)[O-])c1)NC(=O)c1ccc(C)cc1` -17.3

Indicate the recorded hERG current change (%, negative = inhibition) at 1uM value for this compound: `COc1ccc(OCC(=O)Nc2c(C(=O)N(CCN(C)C)Cc3ccco3)oc3ccccc23)cc1` -82.2

// fetch hERG current change (%, negative = inhibition) at 1uM given entry `Cc1c(C(=O)OCC(=O)NCc2ccco2)oc2ccccc12` 10.1

====

subject.of.test: human ether-à-go-go-related gene (hERG) potassium channel (human, UniProt Q12809)
measurement.notes: primary screen, population patch clamp on CHO cells stably expressing hERG; higher = less effect of the substance
Screen size: about 310,000 compounds; about 2,200 (0.71%) showed an effect of 50% or more. Effects have a minus sign here. The sample as a whole holds a higher share of strong results than the screen did.
outcome.measure: hERG current change (%, negative = inhibition) at 1uM (%)
Hi! Could you send only the number? It should be in %, unit omitted.

Return value of hERG current change (%, negative = inhibition) at 1uM for input `Cn1c2ccccc2c2c(C(=O)NCc3ccco3)cn(C3CCCCC3)c(=O)c21` , no commentary. 7.44

Provide only the value of recorded hERG current change (%, negative = inhibition) at 1uM for CCOC(=O)N1CCC(N2C(=O)c3ccccc3C2Nc2ccccc2C)CC1 (stereo not shown) -8.54

Look up hERG current change (%, negative = inhibition) at 1uM of `COc1ccc2[nH]cc(C(=O)CN(C)C)c2c1` and report it. 11.4

Specify measured hERG current change (%, negative = inhibition) at 1uM for Cc1ccc2nc3nc(NCC4CCCO4)c(C(=O)NC4CCCC4)cc3c(=O)n2c1 (stereo not shown) . -83.8

Write down hERG current change (%, negative = inhibition) at 1uM measured for item `Cc1ccc(-c2csc3ncnc(N4CCN(C)CC4)c23)cc1C` 10.8

Identify hERG current change (%, negative = inhibition) at 1uM associated with the molecule Cc1ccc2nc3nc(NCC4CCCO4)c(C(=O)NC4CCCCC4)cc3c(=O)n2c1 (stereo not shown) -76.8

In one line, give reported hERG current change (%, negative = inhibition) at 1uM of the entry `CC(C)(C)c1nc2ccccc2[nH]1` . 10.8

State its hERG current change (%, negative = inhibition) at 1uM: CCOC(=O)N1CCC(N2C(=O)c3ccccc3C2Nc2ccccc2)CC1 (stereo not shown) 6.14

State its hERG current change (%, negative = inhibition) at 1uM for this molecule: CCn1cc(C(=O)NCC2CCCO2)c2cc(OC)c(OC)cc2c1=O (stereo not shown) 14.8

// Input: Cc1ccc2nc3c(cc(C(=O)NC4CCS(=O)(=O)C4)n3Cc3ccccc3)c(=O)n2c1 (stereo not shown) . Output its hERG current change (%, negative = inhibition) at 1uM only. 21.4

Respond only with hERG current change (%, negative = inhibition) at 1uM recorded for `COc1ccc2[nH]cc(C(=O)CN(C)CCc3ccc(OC)c(OC)c3)c2c1` -60.6

Please look at this molecule and report its hERG current change (%, negative = inhibition) at 1uM: Cc1ccc(-c2nn(-c3ccccc3Cl)cc2C(=O)NCC2CCCO2)cc1 (stereo not shown) 18.4

Answer with reported hERG current change (%, negative = inhibition) at 1uM of `CCN1CCN(c2ncnc3scc(-c4ccc(C)c(C)c4)c23)CC1` -50.8

Identify the reported hERG current change (%, negative = inhibition) at 1uM for the following entry. `CSc1ccccc1C(=O)N1CCN(S(=O)(=O)c2sc(C(=O)O)c(C)c2C(=O)O)CC1` 0.019

Supply reported hERG current change (%, negative = inhibition) at 1uM belonging to this molecule: `CNC(=S)Nc1cc(C(F)(F)F)ccc1Cl` -4.86

Report measured hERG current change (%, negative = inhibition) at 1uM; entry is `CCN1CCN(c2ncnc3scc(-c4ccc(C)cc4)c23)CC1` 3.26

====

Give measured hERG current change (%, negative = inhibition) at 1uM for each item. Keep answers brief.
subject.of.test: human ether-à-go-go-related gene (hERG) potassium channel (human, UniProt Q12809)
measurement.notes: primary screen, population patch clamp on CHO cells stably expressing hERG; higher = less effect of the substance
Out of some 310,000 compounds screened, about 2,200 (0.71%) showed an effect of 50% or more. The effect is printed as a negative number. The list comes from a sample in which strong results are over-represented; it also holds close analogues and randomly drawn compounds.
Numbers only; they are read as %.

Query hERG current change (%, negative = inhibition) at 1uM for Cc1ccc(N2CC(C(=O)N3CCC4(CC3)CC(=O)c3ccccc3O4)CC2=O)cc1C (centres unmarked) -6.22

Annotate the compound `Cc1ccc(C[n+]2c(-c3ccc(C)cc3)cc(-c3ccc(C)cc3)cc2-c2ccc(C)cc2)cc1.[O-][Cl+3]([O-])([O-])[O-]` with its measured hERG current change (%, negative = inhibition) at 1uM. -61.7

Read the entry `COC(=O)[C@H]1C[C@H]1[C@@H](NC(=O)c1cccnc1)c1ccccc1` and write its reported hERG current change (%, negative = inhibition) at 1uM. 11.4

Give the value of hERG current change (%, negative = inhibition) at 1uM reported for the following: COc1cccc(N2CC(C(=O)N3CCC4(CC3)CC(=O)c3ccccc3O4)CC2=O)c1 (centres unmarked) 3.79

Specify measured hERG current change (%, negative = inhibition) at 1uM for O=C1CC2(CCN(C(=O)C3CC(=O)N(c4ccccc4)C3)CC2)Oc2ccccc21 (centres unmarked) . -51.5

// fetch hERG current change (%, negative = inhibition) at 1uM given entry `Clc1ccc(C[n+]2c(-c3ccccc3)cc(-c3ccccc3)cc2-c2ccccc2)cc1.[O-][Cl+3]([O-])([O-])[O-]` -25.5

Look up hERG current change (%, negative = inhibition) at 1uM of `Cc1ccc(-c2cc(-c3ccc(C)cc3)[n+](-c3ccccc3)c(-c3ccc(C)cc3)c2)cc1.[O-][Cl+3]([O-])([O-])[O-]` and report it. -77.3

For the compound `Nc1ccccc1-[n+]1c(-c2ccccc2)cc(-c2ccccc2)cc1-c1ccccc1.[O-][Cl+3]([O-])([O-])[O-]` , report hERG current change (%, negative = inhibition) at 1uM. 0.0928

Answer with reported hERG current change (%, negative = inhibition) at 1uM of `COc1ccc(NC(=O)COc2cccnc2[N+](=O)[O-])cc1OC` 15.8

Tell me hERG current change (%, negative = inhibition) at 1uM reported for `CCCCN(Cc1ccccc1)C1CCN(Cc2ccccc2)CC1` -14.5

Respond only with hERG current change (%, negative = inhibition) at 1uM recorded for Cc1ccc(N2CC(C(=O)N3CCC4(CC3)CC(=O)c3ccccc3O4)CC2=O)cc1 (centres unmarked) -47.4
